Tested on: OVCAR-8 ovarian
protocol.details: NCI-60 one-dose screen, 48 h (100 = growth as untreated, 0 = no growth, -100 = all killed)
experimental.parameters: 10 µM unless noted
This is part of a sample that, as a whole, favours compounds with a hit. Of some 83,000 tested, about 20% had one in any assay.
# label = TRUE if growth < 90% else FALSE

Report whether reported growth is lower than 90% (strictly) for COc1ccc(-c2nnc(SCC(=O)Nc3ccc(C(=O)/C=C/c4ccc(Cl)cc4)cc3)n2-c2ccccc2)cc1
FALSE

API: query returns whether the compound falls strictly under 90% in growth. Query: CC(=O)[C@H]1CC[C@H]2[C@@H]3CC[C@H]4CC=CC[C@]4(C)[C@H]3CC[C@]12C
FALSE

Find out if reported growth for O=C1C(Cl)=C(N/N=c2/[nH][nH]/c(=N/NC3=C(Cl)C(=O)c4ccccc4C3=O)c3ccccc23)C(=O)c2ccccc21 is less than 90%
TRUE

Hello, I'm reviewing records and need to know if growth of CN(C)CCOc1nc2c3ccncc3cc(-c3cccc(Cl)c3)c2c2cnccc12 is below 90%. Could you check?
TRUE

Regarding O=c1cc(N2CCOCC2)oc2c(-c3ccc4c(c3)OCCO4)csc12 , kindly confirm whether its growth is beneath 90%.
TRUE

Threshold test, growth < 90%: COc1ccc(C(=O)C(CN(C)C)c2ccccc2)cc1 (centres undefined)
TRUE

Does this compound meet the criterion growth < 90%? COc1ccc(C2CC(c3cccc(Nc4ccnc5cc(Cl)ccc45)c3)=NN2c2ccc(Cl)cc2)cc1 (centres undefined)
TRUE

Strictly below 90%: is that where growth of CN(C)c1ccc(/C=N/Nc2nnc3n2N=C(c2ccc(Cl)cc2)CS3)cc1 sits?
FALSE
